Data provenance: patent US20260069689A1

Below: a set of entries, each annotated with reported RBD.mmh Bound at pH 7.4 (RU).
- Target system: SARS-COV-2 RBD-MMH (SARS-CoV-2)
- Protocol notes: SPR 37C, run with dissociation at pH 5.0
Please give a number only; it is taken to be in RU.

Recorded results for 2 binders are shown here.
mAb15158 (antibody, V domains shown) VH: EVQLVESGGGLVQPGGSLRLSCAASGFSFSSNWMSWVRQAPGKGLEWVGNINQDGSEKYYVDSVEGRFTISRDNAKKSLYLQMNSLRAEDTAVYYCARDLGVLWFGDFVDWGQGALVTVSS VL: DIQMTQSPSSLSASVGDRVTITCRASQAISNSLAWYQQKPGKAPKLLLYAASTLESGVPSRFSGSGSGTDYTLTISSLQPEDFATYYCLQYYGSPRTFGQGTKVEIKR = 122
mAb15165 (antibody, V domains shown) VH: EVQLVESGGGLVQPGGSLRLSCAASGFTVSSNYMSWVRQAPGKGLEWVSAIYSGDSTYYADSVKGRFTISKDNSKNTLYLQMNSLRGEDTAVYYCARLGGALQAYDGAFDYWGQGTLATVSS VL: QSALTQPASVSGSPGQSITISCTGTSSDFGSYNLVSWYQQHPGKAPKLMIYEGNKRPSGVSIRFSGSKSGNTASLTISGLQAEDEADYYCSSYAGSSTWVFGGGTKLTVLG = 127

Please look at the following binder next.
I have this binder here, mAb15166 (antibody, V domains shown) VH: EVQLVESGGGLVQPGGSLRLSCAASGFTVTSNYMSWVRQAPGKGLEWVSAIYSGESTYYADSVKGRFTISRDSSKNTLYLQMNSLRVEDTAVYYCASIHDYSNYVGGFDPWGQGTLVTVSS VL: QSALTQPASVSGSPGQSITISCTGPSSDFGSYNLVSWYQQHPGKAPKLMIYEGTKRPSGVSNRFSGSKSGNTASLTISGLQAEDEADYYCSSYAGSSTWVFGGGTKLTVLG , and I need its recorded RBD.mmh Bound at pH 7.4 (RU). 60
